Would you mind telling me the reported growth inhibition of each entry?
Test: NCI Yeast Anticancer Drug Screen. Data for the bub3 strain (AID 167)
Details: S. cerevisiae bub3 mutant strain, at 50.0 µM (retest, dose inferred, filed as 5.0), stronger effect = higher value
Procedure: Growth inhibition of yeast strains with defined genetic alterations is measured as a screen for potential anti-cancer activity. Selected strains with alterations in DNA damage repair or cell cycle control were exposed to compounds and growth inhibition was measured relative to vehicle treated controls. The strain used in this assay is bub3
The panel holds about 79,000 compounds, 15% with a hit somewhere; the sample as a whole holds those more often.
One number for each entry, in %.

Cc1ccc(Nc2nc(C)c(C(/C=C/c3ccc4c(c3)OCO4)=N/Nc3ccc([N+](=O)[O-])cc3[N+](=O)[O-])s2)c([N+](=O)[O-])c1 :: 33
CCOc1ccc2nc(Cl)sc2c1 :: 97
COc1cc(/C=C2\CCc3ccccc3C2=O)ccc1O :: 99

Lab note: next molecule to report on.
In plain terms, O=CNc1ccc(Oc2ccc(NC=O)cc2)cc1 has a documented growth inhibition of -15
